Origin of the recorded values: patent US7947852B2

Target protein (sequence): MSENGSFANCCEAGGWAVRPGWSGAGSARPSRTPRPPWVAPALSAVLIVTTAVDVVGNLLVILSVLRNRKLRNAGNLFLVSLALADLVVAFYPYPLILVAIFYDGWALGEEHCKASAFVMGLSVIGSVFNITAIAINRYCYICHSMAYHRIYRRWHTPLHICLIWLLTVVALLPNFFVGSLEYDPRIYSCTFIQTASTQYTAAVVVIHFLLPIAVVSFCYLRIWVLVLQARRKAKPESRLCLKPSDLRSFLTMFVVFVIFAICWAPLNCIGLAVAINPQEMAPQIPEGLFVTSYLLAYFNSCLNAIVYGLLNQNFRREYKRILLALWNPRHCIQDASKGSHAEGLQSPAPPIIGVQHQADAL
PROPERTY: Ki (nM)

- COMPOUND SMILES: "COc1ccc2cccc(/C(CNC(C)=O)=N\\O)c2c1"
  PROPERTY: "Ki"
  MEASURED VALUE: 0.8
